The values you see were collected from PubChem BioAssay (NCI).

# Tested on: UO-31 renal
# test: NCI tumour cell line growth inhibition, 48 h
Reported TGI values for the following compounds.
Express the result in µM but write the number alone.

Completed entries (count: 2):
Cc1cc(N(CCOS(C)(=O)=O)CCOS(C)(=O)=O)ccc1C=Nc1ccc(-c2nc(Cc3ccccc3)sc2C)cc1    18.3
COc1ccc(/C(=C2\O[C@@H]([C@H]3COC(C)(C)O3)[C@H]3OC(C)(C)O[C@@H]23)c2cc(OC)c(OC)c(OC)c2)cc1O    77.8

Entry under review: COc1ccc(C(C#N)NNC(=O)c2ccccc2O)cc1OC (centres undefined) . Reported TGI?
2.2

What do you get for CN(C)CCC(=O)N1C/C(=C/c2ccccc2)C(=O)/C(=C\c2ccccc2)C1 ?
5.21
